# tgt: HLA-A*24:03
# run.description: IEDB peptide-MHC binding, purified MHC/direct/fluorescence; filed as Kd, often an IC50 or EC50 that approximates it; bounds were set here for any values at or beyond the usual limits of such assays
# settings: source organism: Orthohantavirus negraense
quantity.kind: Kd

Entry RRFTQAIYD , Kd reported as ≥ 20 µM

====

# tgt: HLA-B*44:03
# run.description: IEDB peptide-MHC binding, purified MHC/competitive/radioactivity; filed as Kd, often an IC50 or EC50 that approximates it; bounds were set here for any values at or beyond the usual limits of such assays
# settings: source organism: Dengue virus 3 Singapore/8120/1995
quantity.kind: Kd (nM)
Use nM as the unit, but write only the number.

Entry EEHSSTWHY , Kd reported as 41

====

# tgt: HLA-A*24:03
# run.description: IEDB peptide-MHC binding, purified MHC/direct/fluorescence; filed as Kd, often an IC50 or EC50 that approximates it; bounds were set here for any values at or beyond the usual limits of such assays
# settings: source organism: Giardia lamblia ATCC 50803
quantity.kind: Kd
Note: state the figure and append the unit.

Entry IPRQWHPFA , Kd reported as 10.6 µM

====

# tgt: HLA-A*31:01
# run.description: IEDB peptide-MHC binding, purified MHC/competitive/fluorescence; filed as Kd, often an IC50 or EC50 that approximates it; bounds were set here for any values at or beyond the usual limits of such assays
# settings: source organism: Francisella tularensis subsp. tularensis FSC198
quantity.kind: Kd

Entry AIYESNIGY , Kd reported as ≥ 20 µM

====

# tgt: HLA-A*31:01
# run.description: IEDB peptide-MHC binding, purified MHC/competitive/radioactivity; filed as Kd, often an IC50 or EC50 that approximates it; bounds were set here for any values at or beyond the usual limits of such assays
# settings: source organism: Vaccinia virus WR
pKd: −log10 of the molar value.
Answer label 0 if pKd is under 5, and label 1 if it is 5 or more.

GTSNWTGNY label 0
YANLDDVYSY label 0
HLKVALYRR label 1
LFVKKMLPK label 1
IIVNNQESNK label 0
LIKKSDAKR label 1

Task: Could you tell me if the measured pKd of CAGVIEYAK reaches 5 or more?
Result: label 1

Task: Could you tell me if the measured pKd of LSSKGLACYR reaches 5 or more?
Result: label 1

====

# tgt: HLA-C*04:01
# run.description: IEDB peptide-MHC binding, purified MHC/direct/fluorescence; filed as Kd, often an IC50 or EC50 that approximates it; bounds were set here for any values at or beyond the usual limits of such assays
# settings: source organism: Escherichia coli HS
pKd: −log10 of the molar value.
quantity.kind: pKd

For the sequence MYTRNLLWL , the measured pKd on HLA-C*04:01 was ≤ 4.70

====

# tgt: HLA-A*33:01
# run.description: IEDB peptide-MHC binding, purified MHC/competitive/radioactivity; filed as Kd, often an IC50 or EC50 that approximates it; bounds were set here for any values at or beyond the usual limits of such assays
# settings: source organism: Mammarenavirus machupoense
pKd: −log10 of the molar value.
quantity.kind: pKd

For the sequence SSFDYCGTDH , the measured pKd on HLA-A*33:01 was ≤ 4.38

====

# tgt: HLA-A*23:01
# run.description: IEDB peptide-MHC binding, purified MHC/direct/fluorescence; filed as Kd, often an IC50 or EC50 that approximates it; bounds were set here for any values at or beyond the usual limits of such assays
# settings: source organism: Choclo virus
quantity.kind: Kd

Entry LRYGNVLDV , Kd reported as ≥ 20 µM
